All figures here come from ChEMBL document CHEMBL4145557.

Species on record: Oryctolagus cuniculus
Assay: Activation of troponin in rabbit fast skeletal muscle fibers assessed as increase in calcium stimulated activity by measuring compound concentration that produces 40% increase in myofibril ATPase activity at 25% of calcium concentration needed for maximal response by pyruvate kinase/lactate dehydrogenase-coupled based assay
Listed here are compounds together with their documented log10(EC40).
// units: µM (pre-log); metric: EC40; scale: log10

(Q) Need log10(EC40) of C#Cc1cnc2nc(O)n(C(CC)CC)c2n1 , thanks.
(A) -1.00

(Q) What measured log10(EC40) goes with CCc1cnc2[nH]c(=O)n([C@@H](C)c3ccccc3)c2n1 ?
(A) 1.34

(Q) log10(EC40) lookup needed for CCC(CC)n1c(=O)[nH]c2ncc(C)nc21 , thanks.
(A) 0.30

(Q) Param item = CC(C)(C)n1c(=O)[nH]c2ncc(Br)nc21 ; retrieve measured log10(EC40).
(A) -0.10

(Q) Given the compound C[C@@H](c1ccccc1)n1c(=O)[nH]c2ncc(Br)nc21 , what is its reported log10(EC40)?
(A) 0.20

(Q) What measured log10(EC40) goes with CCC(CC)n1c(=O)[nH]c2ncc(C(F)(F)F)nc21 ?
(A) 1.05

(Q) log10(EC40) lookup needed for CC(C)n1c(=O)[nH]c2ncc(Br)nc21 , thanks.
(A) 0.78

(Q) log10(EC40) for CCC(CC)n1c(=O)[nH]c2ncc(Cl)nc21 ?
(A) -0.30
